Catalogue of pIC50 readings, one per entry.
EXPERIMENTAL TARGET: human CB2 receptor (Homo sapiens)
Sequence (P34972 whole entry): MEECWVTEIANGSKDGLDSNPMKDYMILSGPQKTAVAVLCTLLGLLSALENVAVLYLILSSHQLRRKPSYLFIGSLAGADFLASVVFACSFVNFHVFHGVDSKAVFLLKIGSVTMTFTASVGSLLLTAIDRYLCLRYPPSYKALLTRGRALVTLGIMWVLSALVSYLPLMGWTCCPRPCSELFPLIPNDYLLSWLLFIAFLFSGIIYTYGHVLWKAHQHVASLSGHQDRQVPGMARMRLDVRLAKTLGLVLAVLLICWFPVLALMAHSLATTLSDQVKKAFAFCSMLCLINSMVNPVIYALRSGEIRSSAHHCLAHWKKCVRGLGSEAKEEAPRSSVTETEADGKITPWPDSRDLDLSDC
EXPERIMENTAL DETAILS: Binding assay, cannabinoid CB2 receptor ([3H]-CP-55,940 displacement)
PROTOCOL CONDITIONS: Cannabinoid CB2 Receptor Binding IC50, human CB2 receptor, SK-N-MC cell membranes, radioligand CP-55,940 0.2 nM
Experimental: Binding Assay for CB1 or CB2 Agonists or Inverse Agonists The human CB1 and CB2 receptors were stably expressed in SK-N-MC cells transfected with pcDNA3 CB-1 (human) or pcDNA3 CB-2 (human). […] On the day of the assay, the pellet was thawed on ice and diluted in assay buffer (50 mM Tris-HCl, 5 mM MgCl2, 2.5 mM EDTA, 0.5 mg/mL fatty acid free bovine serum albumin, pH 7.5). […] Non-specific binding was measured in wells containing 10 uM WIN 55,212. […]
pIC50: −log10 of the molar value.
ASSAY ENDPOINT: pIC50

> print(dat)
                                   compound                experimental.target  observed.measurement
1  CCOC(=O)c1c(NC(=O)c2nn(C3CCCCC3)c3c2CCCC3)sc2c1CCC2 [compound 56]  human CB2 receptor (Homo sapiens)                  4.70
2  CC12CCC(C1)C(C)(C)C2NC(=O)c1nn(-c2ccc(F)cc2)c2c1CCCC2CCc1ccccc1 (centres unmarked) [compound 151]  human CB2 receptor (Homo sapiens)                  7.52
3  COc1ccccc1C(Cc1nn(C2CCCCC2)c2c1CCCC2)C(=O)NC1C2(C)CCC(C2)C1(C)C (centres unmarked) [Cpd 333]  human CB2 receptor (Homo sapiens)                  5.54
4  CCOC(=O)C1CCc2c(c(C(=O)NC34CC5CC(CC(C5)C3)C4)nn2-c2ccccc2)C1 (centres unmarked) [compound 118]  human CB2 receptor (Homo sapiens)                  6.40
5  CC12CCC(C1)C(C)(C)C2NC(=O)c1nn(C2CCCCC2)c2c1CC(N)CC2 (centres unmarked) [Cpd 92]  human CB2 receptor (Homo sapiens)                  7.05
6  O=C(NCC12CC3CC(CC(C3)C1)C2)c1nn(-c2ccc(Cl)cc2Cl)c2c1CCCC2 [compound 141]  human CB2 receptor (Homo sapiens)                  6.85
7  C[C@@H](NC(=O)c1nn(C2CCCCC2)c2c1CCCC2)C1CCCCC1 [compound 195]  human CB2 receptor (Homo sapiens)                  7.70
8  CCOC(=O)[C@H]1C2CCC(C2)[C@H]1NC(=O)C(C)(C)Cc1nn(C2CCCCC2)c2c1CCCC2 (some centres unmarked) [compound 281]  human CB2 receptor (Homo sapiens)                  4.78

----------
Catalogue of pEC50 readings, one per entry.
EXPERIMENTAL TARGET: human CB2 receptor (Homo sapiens)
EXPERIMENTAL DETAILS: Functional cell-based assay, CB2 receptor mediated change in CRE β-gal expression (agonist / inverse agonist)
PROTOCOL CONDITIONS: SK-N-MC cells, forskolin, inverse agonist, read-out: CB2 Receptor Functional Inverse Agonist EC50
pEC50: −log10 of the molar value.
ASSAY ENDPOINT: pEC50

> print(dat)
                                   compound  observed.measurement
1  CCOC(=O)C1CCc2c(c(C(=O)NC3C4(C)CCC(C4)C3(C)C)nn2C2CCCCC2)C1 (centres unmarked)                  7.64
2  COC(=O)C(Cc1cccc(OCc2ccccc2)c1)NC(=O)c1nn(-c2ccc(OC)cc2)c2c1CCCC2 (centres unmarked)                  6.72
3  CCOC(=O)C1CCc2c(c(C(=O)NC(C)C34CC5CC(CC(C5)C3)C4)nn2-c2ccccc2)C1 (centres unmarked)                  6.30
4  COC(=O)C1CCc2c(c(C(=O)NC3C4CC5CC(C4)CC3C5)nn2C2CCCCC2)C1 (centres unmarked)                  7.46
5  CCOC(=O)C1CCc2c(c(C(=O)N[C@H](C)C3CCCCC3)nn2C2CCCCC2)C1 (some centres unmarked)                  7.64
6  CCOC(=O)[C@@H]1CCc2c(c(C(=O)NC3C4CC5CC(C4)CC3C5)nn2Cc2ccccc2)C1 (some centres unmarked)                  7.80
7  CCOC(=O)[C@H]1CCc2c(c(C(=O)NC3C4CC5CC(C4)CC3C5)nn2C2CCCCC2)C1 (some centres unmarked)                  8.07
8  CCOC(=O)C1CCc2c(c(C(=O)NC3C4CC5CC(C4)CC3C5)nn2C2CCCCC2)C1 (centres unmarked)                  7.48

----------
EXPERIMENTAL TARGET: human CB1 receptor (Homo sapiens)
Construct: expressed in transfected cells; host or cells: SK-N-MC cells, stably transfected with pcDNA3 CB-1 (human); semi-purified membrane pellet
Sequence (P21554 whole entry): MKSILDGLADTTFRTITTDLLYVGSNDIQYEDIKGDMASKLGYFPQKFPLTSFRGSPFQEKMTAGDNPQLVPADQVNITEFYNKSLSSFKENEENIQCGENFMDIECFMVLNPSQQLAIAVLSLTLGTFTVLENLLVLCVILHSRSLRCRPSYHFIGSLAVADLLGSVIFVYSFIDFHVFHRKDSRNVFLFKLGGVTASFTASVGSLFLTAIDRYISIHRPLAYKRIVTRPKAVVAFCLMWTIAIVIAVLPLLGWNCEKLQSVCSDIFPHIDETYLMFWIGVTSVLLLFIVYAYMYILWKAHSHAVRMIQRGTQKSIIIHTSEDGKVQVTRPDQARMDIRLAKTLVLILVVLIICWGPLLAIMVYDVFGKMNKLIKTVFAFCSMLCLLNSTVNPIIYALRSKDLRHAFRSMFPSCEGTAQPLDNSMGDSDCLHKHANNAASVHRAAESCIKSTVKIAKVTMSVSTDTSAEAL
EXPERIMENTAL DETAILS: biochemical
Format: binding
PROTOCOL CONDITIONS: human CB1 receptor, SK-N-MC cell membranes, radioligand CP-55,940 0.2 nM; read-out: Cannabinoid CB1 Receptor Binding IC50
ASSAY ENDPOINT: IC50 (nM)

> print(dat)
                                   compound  assay.endpoint  observed.measurement
1  COc1ccc(-n2nc(C(=O)NCCc3ccc(N)cc3)c3c2CCCC3)cc1            IC50                  3100
2  COC1CCCc2c(C(=O)NC3C4CC5CC(C4)CC3C5)nn(C3CCCCC3)c21 (stereo not shown)            IC50                   635
3  COc1ccccc1CCNC(=O)c1nn(-c2ccccc2)c2c1CCCC2            IC50                 25100
4  CC(NC(=O)c1nn(C2CCCCC2)c2c1CCCC2)[C@H]1CC[C@H](C)CC1 (stereo partly shown)            IC50                   160

----------
EXPERIMENTAL TARGET: human CB2 receptor (Homo sapiens)
EXPERIMENTAL DETAILS: Binding assay, cannabinoid CB2 receptor ([3H]-CP-55,940 displacement)
PROTOCOL CONDITIONS: Cannabinoid CB2 Receptor Binding IC50, human CB2 receptor, SK-N-MC cell membranes, radioligand CP-55,940 0.2 nM
Catalogue of IC50 readings, one per entry.
ASSAY ENDPOINT: IC50

> print(dat)
                                    molecule  observed.measurement
 1  CCOC(=O)[C@@H]1CCC[C@@H]1NC(=O)c1nn(C2CCCCC2)c2c1CCCC2Cl (stereo partly shown) [compound 61]               0.19 µM
 2  C[C@@H](NC(=O)c1nn(-c2ccc(Cl)cc2Cl)c2c1CCC/C2=C\c1ccc(Cl)cc1)C1CCCCC1 [compound 293]                0.6 µM
 3  CCOC(=O)C1CCc2c(c(C(=O)NCC34CC5CC(CC(C5)C3)C4)nn2-c2ccccc2)C1 (stereo not shown) [compound 117]               0.37 µM
 4  CCOC(=O)[C@@H]1C2CCC(C2)[C@@H]1NC(=O)c1c2c(nn1Cc1ccccc1)CCCC2 (stereo partly shown) [compound 273]              0.414 µM
 5  O=C(Nc1nn(C2CCCCC2)c2c1CCCC2)c1cccc2ccccc12 [compound 181]                1.6 µM
 6  O=C(NNC1CCCCC1)c1nn(-c2ccc(F)cc2)c2c1CCCC2 [compound 30]               1.47 µM
 7  CCOC(=O)[C@H]1C2CCC(C2)[C@H]1NC(=O)c1nn(-c2ccc(F)cc2)c2c1CCCC2CCc1ccccc1 (stereo partly shown) [compound 154]               0.37 µM
 8  O=C(N[C@H]1CCCC[C@H]1CO)c1nn(C2CCCCC2)c2c1CCCC2Cl (stereo partly shown) [Cpd 60]              0.515 µM
 9  CCOC(=O)C1CCc2nn(C3CCCCC3)c(C(=O)NC3C4CC5CC(C4)CC3C5)c2C1 (stereo not shown) [compound 221]               0.46 µM
10  O=C(Nc1nn(Cc2ccccc2)c2c1CCCC2)NC12CC3CC(CC(C3)C1)C2 [compound 337]               0.08 µM
11  CCOC(=O)C1CCc2c(c(C(=O)NC3C4CC5CC(C4)CC3C5)nn2C2CCCCC2)C1 (stereo not shown) [compound 222]             0.0049 µM
12  CCOC(=O)C1C2CCC(C2)C1NC(=O)c1nn(C2CCCCC2)c2c1CCCC2 (stereo not shown) [compound 28]             0.0075 µM
13  CC(CC1CCCCC1)NC(=O)c1nn(C2CCCCC2)c2c1CCCC2 (stereo not shown) [compound 330]               0.03 µM
14  C[C@H]1C(NC(=O)c2nn(C3CCCCC3)c3c2CCCC3)C[C@@H]2C[C@H]1C2(C)C (stereo partly shown) [compound 252]              0.048 µM
15  O=C(NCC12CC3CC(CC(C3)C1)C2)c1nn(C2CCCCC2)c2c1CCCC2 [compound 32]             0.0069 µM
16  C[C@H](NC(=O)c1nn(-c2ccc(Cl)cc2Cl)c2c1CCC/C2=C\c1ccc(Cl)cc1)c1ccccc1 [compound 294]                0.7 µM
